Recorded values, source paper PMC12003839.

Target protein (sequence): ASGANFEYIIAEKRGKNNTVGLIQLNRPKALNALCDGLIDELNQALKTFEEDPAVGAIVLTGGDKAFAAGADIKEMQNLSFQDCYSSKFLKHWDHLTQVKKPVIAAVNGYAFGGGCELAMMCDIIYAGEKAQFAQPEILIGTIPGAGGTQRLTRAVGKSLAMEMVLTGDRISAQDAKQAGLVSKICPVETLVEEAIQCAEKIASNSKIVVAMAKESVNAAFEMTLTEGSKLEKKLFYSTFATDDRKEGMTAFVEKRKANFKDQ
reported-endpoint: Kd (µM)

Check out these entries, answers already filled in.
CCCCCC(=O)SCCNC(=O)CCNC(=O)[C@H](O)C(C)(C)COP(=O)(O)OP(=O)(O)OC[C@H]1O[C@@H](n2cnc3c(N)ncnc32)[C@H](O)[C@@H]1OP(=O)(O)O: 2.57
CCCCCCCC(=O)SCCNC(=O)CCNC(=O)[C@H](O)C(C)(C)COP(=O)(O)OP(=O)(O)OC[C@H]1O[C@@H](n2cnc3c(N)ncnc32)[C@H](O)[C@@H]1OP(=O)(O)O: 2.64

a = CC(=O)CC(=O)SCCNC(=O)CCNC(=O)[C@H](O)C(C)(C)COP(=O)(O)OP(=O)(O)OC[C@H]1O[C@@H](n2cnc3c(N)ncnc32)[C@H](O)[C@@H]1OP(=O)(O)O
b = C/C=C/C(=O)SCCNC(=O)CCNC(=O)[C@H](O)C(C)(C)COP(=O)(O)OP(=O)(O)OC[C@H]1O[C@@H](n2cnc3c(N)ncnc32)[C@H](O)[C@@H]1OP(=O)(O)O
**Q:** Look at a and b . Which one has the lower recorded Kd number? Indicate your choice by writing its label.
**A:** b
(b: 0.863 µM, a: 2.69 µM)
